// provenance: PubChem BioAssay AID463173

Test system: Wild type
test-details: S. aureus survival, RN4220 and DeltatarO strains – OD600, teichoic acid synthesis inhibitors, primary screen (AID 463173)
particulars: S. aureus RN4220 wild type/DeltatarO growth, OD600, 18 h, screened at 18.75 µg/mL (by protocol)
About 1,700 (3.3%) of roughly 52,000 compounds were called active. No stated cut-off is given here; in the data, active means survival mostly below about 52% (no sharp cut-off); inactive means mostly above about 56%. Only a selection was taken, and actives are over-represented in it overall.
Thanks in advance; please answer with one of these: 1.0 for active, 0.0 for inactive

compound | category-label
CCOCCc1nn2c(=O)cc(COC(=O)c3ccc(NC(=O)C(C)(C)C)cc3)nc2s1 | 0.0
Cc1ccnc(NS(=O)(=O)c2cc(-c3cc(C)no3)ccc2C)c1 | 0.0
Cc1cccc(C(=O)Nc2sc3c(c2C(=O)Nc2ccccc2)CCC3)c1 | 0.0
O=S(=O)(c1cccc2nsnc12)N(CCOc1ccccc1)C1CCCCC1 | 0.0
Cc1cccc(NC(=O)c2c(NC(=O)c3ccccc3)sc3c2CCC3)c1 | 0.0

Problem: GET /call?item= CCn1cc2nc(SCc3c(F)cccc3Cl)n(CCc3ccccc3)c(=O)c2n1 returns the recorded outcome of this test.
Solution: 0.0

Problem: // next record CCc1ccc(-c2cc(C)no2)cc1S(=O)(=O)Nc1ccc(Cl)cc1
Solution: 0.0

Problem: Likewise for COc1ccc(Cl)cc1NC(=O)COC(=O)CC(C)(C)CC1=NS(=O)(=O)c2ccccc2N1 ?
Solution: 0.0

Problem: Repeat for the following compound: COCCc1nn2c(=O)cc(COC(=O)COc3ccccc3C)nc2s1
Solution: 0.0

====

Test system: Wild type
test-details: S. aureus survival, RN4220 and DeltatarO strains – OD600, teichoic acid synthesis inhibitors, primary screen (AID 463173)
particulars: S. aureus RN4220 wild type/DeltatarO growth, OD600, 18 h, screened at 18.75 µg/mL (by protocol)
Screen size: about 52,000 compounds; about 1,700 (3.3%) were called active. No stated cut-off is given here; in the data, active means survival mostly below about 52% (no sharp cut-off); inactive means mostly above about 56%. The sample as a whole holds a higher share of actives than the screen did.
Select the matching outcome among 1.0 (active), 0.0 (inactive)

These solved cases illustrate the format of a correct answer.
molecule | category-label
Cc1cccc(NC(=O)CSc2nc3c([nH]c4ccccc43)c(=O)n2-c2ccc(F)cc2)c1C | 0.0
Cc1ccc(-n2c(SCC(=O)N3CCC(C)CC3)nc3c([nH]c4ccccc43)c2=O)cc1 | 1.0
COc1ccccc1OCCCn1c(C2CC(=O)N(c3ccc(F)cc3)C2)nc2ccccc21 (centres undefined) | 0.0
CCOc1ccc(N(CC(=O)Nc2ccccc2)S(C)(=O)=O)cc1 | 0.0
CCS(=O)(=O)c1nc(S(=O)(=O)c2ccc(C)cc2)c(NC(C)c2ccccc2)s1 (centres undefined) | 0.0
Cc1cc(C)cc(-n2c(SCC(=O)N3CCC(C)CC3)nc3c([nH]c4ccccc43)c2=O)c1 | 1.0

Problem: Which outcome did this test record for the molecule O=C(CN1CCCC1)Nc1nc(-c2ccc3c(c2)CCN3C(=O)C2CC2)cs1 ?
Solution: 0.0

Problem: Moving on to COc1ccc(OCC(=O)Nc2ccc(-c3nc4cc(C)c(C)cc4o3)cc2)cc1
Solution: 0.0

Problem: Field entry: CCOC(=O)CSc1nc2c([nH]c3ccccc32)c(=O)n1-c1ccc(OCC)cc1
Solution: 0.0

Problem: Repeat for the following molecule: CCOc1ccc(-n2c(SCC(=O)Nc3cc(C)ccc3C)nc3c([nH]c4ccccc43)c2=O)cc1
Solution: 0.0

Problem: Entry to check: Cc1ccc2c(c1)cc1c(=O)n(Cc3ccc(Cl)cc3)nc(C)n12
Solution: 0.0

Problem: Subsequent entry: COC(=O)c1cc2c(ccn2-c2ccc(F)cc2)n1Cc1ccccc1
Solution: 0.0

Problem: Record: CCOc1ccccc1N1CC(c2nc3ccccc3n2CCCCOc2cc(C)ccc2C)CC1=O (centres undefined)
Solution: 0.0

Problem: Another molecule to check: Cc1cc(Br)ccc1NC(=O)CSc1c2c(nc3ccccc13)CCC2
Solution: 0.0
